System: Influenza B virus
experiment_summary: Concentration required for reduction of plaque against influenza B
Format: functional, organism-based, unidentified influenza virus
study_conditions: Influenza B virus; read-out: IC50
IC50 less than 0.06 µg/mL is Criterion met; IC50 greater than or equal to 0.06 µg/mL is Criterion not met.

// known answers, use as guide
| compound | cat |
| --- | --- |
| CCCN(CCc1ccccc1)C(=O)[C@@H]1OC(C(=O)O)=C[C@H](N)[C@H]1NC(C)=O | Criterion not met |
| CCCN(CCC)C(=O)[C@@H]1OC(C(=O)O)=C[C@H](N)[C@H]1NC(=O)C(F)(F)F | Criterion not met |
| CCCN(CCC)C(=O)[C@@H]1OC(C(=O)O)=C[C@H](N)[C@H]1NC(=O)CC | Criterion not met |
| CCCN(CCC)C(=O)[C@@H]1OC(C(=O)O)=C[C@H](N)[C@H]1NC(C)=O | Criterion not met |
| CCCN(CCc1ccccc1)C(=O)[C@@H]1OC(C(=O)O)=C[C@H](N)[C@H]1NC(=O)C(F)(F)F | Criterion met |
| CC(=O)N[C@H]1[C@H]([C@H](O)[C@H](O)CO)OC(C(=O)O)=C[C@@H]1NC(=N)N [ZANAMIVIR] | Criterion met |

input: Item `CCCN(CCc1ccccc1)C(=O)[C@@H]1OC(C(=O)O)=C[C@H](O)[C@H]1NC(C)=O` : IC50 beneath 0.06 µg/mL, strictly?
output: Criterion not met

This collection of values is drawn from ChEMBL document CHEMBL1134218.
